Molecular target: Muscarinic acetylcholine receptor M2 (Homo sapiens, UniProt P08172); note: assay procedure not described here
Sequence (P08172 whole entry): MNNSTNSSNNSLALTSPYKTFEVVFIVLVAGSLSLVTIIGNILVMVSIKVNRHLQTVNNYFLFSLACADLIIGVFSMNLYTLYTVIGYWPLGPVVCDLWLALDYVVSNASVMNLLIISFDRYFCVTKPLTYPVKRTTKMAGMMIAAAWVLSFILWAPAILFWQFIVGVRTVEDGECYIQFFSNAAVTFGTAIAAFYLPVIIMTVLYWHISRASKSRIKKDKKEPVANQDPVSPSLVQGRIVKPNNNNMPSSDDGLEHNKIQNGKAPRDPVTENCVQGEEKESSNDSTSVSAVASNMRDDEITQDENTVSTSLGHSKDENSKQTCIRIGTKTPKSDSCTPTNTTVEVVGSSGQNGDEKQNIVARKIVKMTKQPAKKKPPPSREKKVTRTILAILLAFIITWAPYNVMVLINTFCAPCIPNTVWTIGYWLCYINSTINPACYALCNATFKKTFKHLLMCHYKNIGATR
Format: functional, cell-based
recorded_endpoint: AC50

- molecule: "Nc1nc(N)nc(-c2cc(Cl)ccc2Cl)n1"
  AC50: "> 30 µM"

Param item = "C[C@H](N)[C@H](O)c1cccc(O)c1" ; retrieve measured AC50. > 10 µM

Param item = NS(=O)(=O)Cc1noc2ccccc12 [ZONISAMIDE] ; retrieve measured AC50. > 10 µM

Param item = O=C(Cc1ccc(-c2ccccc2)cc1)Nc1ccccn1 [DIFENPIRAMIDE] ; retrieve measured AC50. > 30 µM

Param item = "Cc1nc([N+](=O)[O-])cn1-c1ccc([N+](=O)[O-])cc1" ; retrieve measured AC50. > 30 µM

Param item = COc1ccccc1OCC(O)CN1CCN(CC(=O)Nc2c(C)cccc2C)CC1 (stereo not given) ; retrieve measured AC50. > 30 µM

Param item = CN1C(=O)C(O)N=C(c2ccccc2)c2cc(Cl)ccc21 (stereo not given) ; retrieve measured AC50. > 10 µM

Param item = O=P1(NCCCl)OCCCN1CCCl (stereo not given) [IFOSFAMIDE] ; retrieve measured AC50. > 30 µM

Param item = "CC(C)Cn1cnc2c(N)nc3ccccc3c21" ; retrieve measured AC50. > 10 µM

Param item = "C[C@H]1CNCCc2ccc(Cl)cc21" ; retrieve measured AC50. > 30 µM

###

target: Neuronal acetylcholine receptor subunit alpha-4 (Homo sapiens); note: assay procedure not described here
Sequence (P43681 whole entry): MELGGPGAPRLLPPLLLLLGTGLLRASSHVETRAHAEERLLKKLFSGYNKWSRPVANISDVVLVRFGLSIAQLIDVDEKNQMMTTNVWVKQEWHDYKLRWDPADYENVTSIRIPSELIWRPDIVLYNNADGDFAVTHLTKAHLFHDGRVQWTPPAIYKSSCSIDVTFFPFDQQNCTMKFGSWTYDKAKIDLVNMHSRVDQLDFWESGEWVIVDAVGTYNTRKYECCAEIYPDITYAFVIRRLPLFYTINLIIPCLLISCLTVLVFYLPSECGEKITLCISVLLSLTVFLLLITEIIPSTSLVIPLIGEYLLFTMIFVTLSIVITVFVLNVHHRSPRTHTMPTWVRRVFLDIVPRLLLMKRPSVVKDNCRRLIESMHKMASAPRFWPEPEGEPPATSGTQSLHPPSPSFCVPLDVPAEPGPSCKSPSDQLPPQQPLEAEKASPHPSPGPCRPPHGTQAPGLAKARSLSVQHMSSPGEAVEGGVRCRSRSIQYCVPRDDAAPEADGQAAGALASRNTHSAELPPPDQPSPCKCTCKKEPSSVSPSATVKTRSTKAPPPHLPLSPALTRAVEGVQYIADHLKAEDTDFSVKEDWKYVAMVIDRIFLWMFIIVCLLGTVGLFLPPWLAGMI
Reported AC50 values for the following compounds.

- compound: "Fc1ccc(C(c2ccccc2)(c2ccccc2F)n2ccnc2)cc1 (configuration not stated) [FLUTRIMAZOLE]"
  target_or_system: "Neuronal acetylcholine receptor subunit alpha-4 (Homo sapiens)"
  AC50: "> 30 µM"
- compound: "CCOC(=O)[C@H](CCc1ccccc1)N[C@@H](C)C(=O)N1[C@H](C(=O)O)C[C@@H]2CCC[C@@H]21"
  target_or_system: "Neuronal acetylcholine receptor subunit alpha-4 (Homo sapiens)"
  AC50: "> 10 µM"
- compound: "C/C(O)=C(\\C#N)C(=O)Nc1ccc(C(F)(F)F)cc1 [TERIFLUNOMIDE]"
  target_or_system: "Neuronal acetylcholine receptor subunit alpha-4 (Homo sapiens)"
  AC50: "> 30 µM"
- compound: "CN1CCC(=C2c3ccccc3CCc3sccc32)CC1 [PIZOTYLINE]"
  target_or_system: "Neuronal acetylcholine receptor subunit alpha-4 (Homo sapiens)"
  AC50: "> 10 µM"
- compound: "CN1C(=O)OC(C)(C)C1=O [TRIMETHADIONE]"
  target_or_system: "Neuronal acetylcholine receptor subunit alpha-4 (Homo sapiens)"
  AC50: "> 10 µM"
- compound: "NCC(=O)CCC(=O)O [AMINOLEVULINIC ACID]"
  target_or_system: "Neuronal acetylcholine receptor subunit alpha-4 (Homo sapiens)"
  AC50: "> 30 µM"
- compound: "CCN(CC)C(=O)N[C@H]1C[C@@H]2c3cccc4[nH]cc(c34)C[C@H]2N(C)C1 [TERGURIDE]"
  target_or_system: "Neuronal acetylcholine receptor subunit alpha-4 (Homo sapiens)"
  AC50: "> 30 µM"
- compound: "O=P1(NCCCl)OCCCN1CCCl (configuration not stated) [IFOSFAMIDE]"
  target_or_system: "Neuronal acetylcholine receptor subunit alpha-4 (Homo sapiens)"
  AC50: "> 30 µM"

Param item = NCC(CC(=O)O)c1ccc(Cl)cc1 (configuration not stated) [BACLOFEN] ; retrieve measured AC50. > 30 µM

Param item = Nc1nc(N)nc(-c2cc(Cl)ccc2Cl)n1 [IRSOGLADINE] ; retrieve measured AC50. > 30 µM

Param item = CC(=O)O[C@H]1C[C@@H]2CC[C@@H]3[C@H](CC[C@@]4(C)[C@H]3C[C@H]([N+]3(C)CCCCC3)[C@@H]4OC(C)=O)[C@@]2(C)C[C@@H]1N1CCCCC1 [VECURONIUM] ; retrieve measured AC50. > 30 µM

Param item = "COc1ccccc1N1CCN(CCCNc2cc(=O)n(C)c(=O)n2C)CC1" ; retrieve measured AC50. > 30 µM

###

Listed here: molecules with reported AC50 for Sodium-dependent dopamine transporter (Homo sapiens, UniProt Q01959).

Guide cases for AC50, answers given:
- molecule: "Cc1ccccc1OCC(O)CO (centres undefined) [MEPHENESIN]"
  target_or_system: "Sodium-dependent dopamine transporter (Homo sapiens, UniProt Q01959)"
  result: "> 30 µM"
- molecule: "CC(=O)Oc1ccc2c(c1)CC[C@@H]1[C@@H]2CC[C@]2(C)[C@@H](O)CC[C@@H]12 [ESTRADIOL ACETATE]"
  target_or_system: "Sodium-dependent dopamine transporter (Homo sapiens, UniProt Q01959)"
  result: "8.09 µM"
- molecule: "Cc1oc(=O)oc1CN1CCN(c2cc3c(cc2F)c(=O)c(C(=O)O)c2n3C(C)S2)CC1 (centres undefined) [PRULIFLOXACIN]"
  target_or_system: "Sodium-dependent dopamine transporter (Homo sapiens, UniProt Q01959)"
  result: "> 30 µM"
- molecule: "O=C(CCNNC(=O)c1ccncc1)NCc1ccccc1 [NIALAMIDE]"
  target_or_system: "Sodium-dependent dopamine transporter (Homo sapiens, UniProt Q01959)"
  result: "> 30 µM"
- molecule: "CC(C)(S)[C@@H](N)C(=O)O [PENICILLAMINE]"
  target_or_system: "Sodium-dependent dopamine transporter (Homo sapiens, UniProt Q01959)"
  result: "> 30 µM"

Short answer please: AC50, Sodium-dependent dopamine transporter (Homo sapiens, UniProt Q01959), entry COc1ccc(C(=O)Nc2ccccc2CCC2CCCCN2C)cc1 (centres undefined) [ENCAINIDE] > 30 µM

Short answer please: AC50, Sodium-dependent dopamine transporter (Homo sapiens, UniProt Q01959), entry CN(C)CCn1nnnc1SCC1=C(C(=O)O)N2C(=O)[C@@H](NC(=O)Cc3csc(N)n3)[C@H]2SC1 [CEFOTIAM] > 30 µM

Short answer please: AC50, Sodium-dependent dopamine transporter (Homo sapiens, UniProt Q01959), entry O=[N+]([O-])c1cn2c(n1)OC[C@@H](OCc1ccc(OC(F)(F)F)cc1)C2 [PRETOMANID] > 30 µM

Short answer please: AC50, Sodium-dependent dopamine transporter (Homo sapiens, UniProt Q01959), entry O=[N+]([O-])O[C@@H]1CO[C@H]2[C@@H]1OC[C@@H]2O [ISOSORBIDE MONONITRATE] > 30 µM

Short answer please: AC50, Sodium-dependent dopamine transporter (Homo sapiens, UniProt Q01959), entry CC(C)(C)NC[C@H](O)COc1ccccc1C1CCCC1 [PENBUTOLOL] > 30 µM

###

biological target: Receptor tyrosine-protein kinase erbB-2 (Homo sapiens, UniProt P04626); format: functional; note: assay procedure not described here
Sequence (P04626 whole entry): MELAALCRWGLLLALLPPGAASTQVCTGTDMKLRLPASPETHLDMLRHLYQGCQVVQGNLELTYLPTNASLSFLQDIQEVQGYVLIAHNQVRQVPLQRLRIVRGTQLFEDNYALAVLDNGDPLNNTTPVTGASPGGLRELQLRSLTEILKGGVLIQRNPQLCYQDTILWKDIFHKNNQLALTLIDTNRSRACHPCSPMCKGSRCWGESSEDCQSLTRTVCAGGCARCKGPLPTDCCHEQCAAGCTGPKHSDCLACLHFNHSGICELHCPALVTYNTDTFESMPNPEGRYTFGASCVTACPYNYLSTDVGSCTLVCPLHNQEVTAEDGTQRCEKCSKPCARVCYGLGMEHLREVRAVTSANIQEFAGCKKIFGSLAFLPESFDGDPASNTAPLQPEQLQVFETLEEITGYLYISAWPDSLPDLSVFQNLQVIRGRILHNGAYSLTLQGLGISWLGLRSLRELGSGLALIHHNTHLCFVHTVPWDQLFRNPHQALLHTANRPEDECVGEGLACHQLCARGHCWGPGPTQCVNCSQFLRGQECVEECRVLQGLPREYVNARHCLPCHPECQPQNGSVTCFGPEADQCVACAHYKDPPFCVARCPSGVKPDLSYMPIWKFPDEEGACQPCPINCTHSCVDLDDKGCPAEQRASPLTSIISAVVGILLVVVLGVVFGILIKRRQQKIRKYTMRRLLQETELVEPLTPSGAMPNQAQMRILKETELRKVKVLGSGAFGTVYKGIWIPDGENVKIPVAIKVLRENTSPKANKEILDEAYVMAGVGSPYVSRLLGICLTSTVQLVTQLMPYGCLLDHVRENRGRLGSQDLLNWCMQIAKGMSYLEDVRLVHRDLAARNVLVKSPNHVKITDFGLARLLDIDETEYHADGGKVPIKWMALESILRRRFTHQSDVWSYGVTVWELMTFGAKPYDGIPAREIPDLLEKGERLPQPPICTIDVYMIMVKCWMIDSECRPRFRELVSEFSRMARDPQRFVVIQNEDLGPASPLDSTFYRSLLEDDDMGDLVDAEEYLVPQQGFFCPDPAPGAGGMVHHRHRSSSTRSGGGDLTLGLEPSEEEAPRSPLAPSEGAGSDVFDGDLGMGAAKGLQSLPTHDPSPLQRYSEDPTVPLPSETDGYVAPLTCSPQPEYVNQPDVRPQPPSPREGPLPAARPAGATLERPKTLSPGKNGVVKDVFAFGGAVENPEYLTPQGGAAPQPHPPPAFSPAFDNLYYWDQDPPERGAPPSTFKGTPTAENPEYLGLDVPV
Reported AC50 values for the following compounds.

Guide cases for AC50, answers given:
- compound: "C[C@@H](O)[C@H]1C(=O)N2C(C(=O)O)=C(S[C@@H]3CN[C@H](C(=O)N(C)C)C3)[C@H](C)[C@H]12 [MEROPENEM]"
  AC50: "> 300 µM"
- compound: "O=C(OCC(O)CO)c1ccccc1Nc1ccnc2cc(Cl)ccc12 (centres undefined) [GLAFENINE]"
  AC50: "> 30 µM"
- compound: "C1CCC(C(CC2CCCCN2)C2CCCCC2)CC1 (centres undefined) [PERHEXILINE]"
  AC50: "> 30 µM"
- compound: "NCC(CC(=O)O)c1ccc(Cl)cc1 (centres undefined) [BACLOFEN]"
  AC50: "> 30 µM"
- compound: "CNC1Cc2ccccc2N(C)c2ccccc21 (centres undefined) [METAPRAMINE]"
  AC50: "> 30 µM"

Param item = Cc1c(C(=O)NN2CCCCC2)nn(-c2ccc(Cl)cc2Cl)c1-c1ccc(Cl)cc1 [RIMONABANT] ; retrieve measured AC50. > 30 µM

Param item = c1cnc(N2CCN(Cc3ccc4c(c3)OCO4)CC2)nc1 [PIRIBEDIL] ; retrieve measured AC50. > 30 µM

Param item = N[C@@H]1[C@H]2CN(c3nc4c(cc3F)c(=O)c(C(=O)O)cn4-c3ccc(F)cc3F)C[C@@H]12 [TROVAFLOXACIN] ; retrieve measured AC50. > 30 µM

Param item = CC(CC1c2ccccc2CCc2ccccc21)CN(C)C (centres undefined) [BUTRIPTYLINE] ; retrieve measured AC50. > 30 µM
